Test: xn = mol fraction of the nth substance listed
Condition Notes: 288.15 K; 100.5 kPa; Liquid; Capillary tube (Ostwald / Ubbelohde) method; x1 = 0.4
Test Readout: viscosity (mPa·s)

Worked set:
Q: Name the reported viscosity value associated with the molecule COC(=O)c1ccccc1 [methyl benzoate] + CCO
Ans: 1.496

Q: Now consider CC(=O)OCc1ccccc1 [benzyl ethanoate] + CCO and answer again.
Ans: 1.601

Q: Now consider CCC(=O)OCc1ccccc1 [benzyl propanoate] + CCO and answer again.
Ans: 1.694

[A] CCOC(=O)CC(C)=O [ethyl 3-oxobutanoate] + CCO
[B] CCOC(=O)CC(C)C [ethyl 3-methylbutanoate] + CCO
Q: Which one would you say has the larger viscosity value: A , or B ? The response must carry the label of the picked entry.
Ans: A
(A: 1.28 mPa·s, B: 0.886 mPa·s)

* * *

Test: xn = mol fraction of the nth substance listed
Condition Notes: 298.15 K; 100.5 kPa; Liquid; x1 = 0.15
Test Readout: mass density (kg/m3)

Q: Name the reported mass density value associated with the molecule CCOC(=O)CC(C)C [ethyl 3-methylbutanoate] + CCO
Ans: 807.99

Q: Now consider CCOC(=O)CC(C)=O [ethyl 3-oxobutanoate] + CCO and answer again.
Ans: 851.63

Q: Now consider CCC(=O)OCc1ccccc1 [benzyl propanoate] + CCO and answer again.
Ans: 866.17

Q: Now consider CCOC(=O)c1ccccc1O [ethyl 2-hydroxybenzoate] + CCO and answer again.
Ans: 892.7

Q: Now consider CC(=O)OCc1ccccc1 [benzyl ethanoate] + CCO and answer again.
Ans: 867.47

Q: Now consider COC(=O)c1ccccc1 [methyl benzoate] + CCO and answer again.
Ans: 869.96

* * *

Test: xn = mol fraction of the nth substance listed
Condition Notes: 288.15 K; 100.5 kPa; Liquid; Capillary tube (Ostwald / Ubbelohde) method; x1 = 0.35
Test Readout: viscosity (mPa·s)

Q: Name the reported viscosity value associated with the compound CCOC(=O)CC(C)=O [ethyl 3-oxobutanoate] + CCO
Ans: 1.25

[I] CCOC(=O)CC(C)C [ethyl 3-methylbutanoate] + CCO
[II] CC(=O)OCc1ccccc1 [benzyl ethanoate] + CCO
Q: Could you tell me which of I and II has the lower viscosity reading? The response must carry the label of the picked entry.
Ans: I

* * *

Test: xn = mol fraction of the nth substance listed
Condition Notes: 308.15 K; 100.5 kPa; Liquid; Capillary tube (Ostwald / Ubbelohde) method; x1 = 0.3
Test Readout: viscosity (mPa·s)

Q: Name the reported viscosity value associated with the compound CC(=O)OCc1ccccc1 [benzyl ethanoate] + CCO
Ans: 1.031

Q: Now consider COC(=O)c1ccccc1 [methyl benzoate] + CCO and answer again.
Ans: 0.981

Q: Now consider CCOC(=O)CC(C)C [ethyl 3-methylbutanoate] + CCO and answer again.
Ans: 0.677

Q: Now consider CCC(=O)OCc1ccccc1 [benzyl propanoate] + CCO and answer again.
Ans: 1.084

Q: Now consider CCOC(=O)CC(C)=O [ethyl 3-oxobutanoate] + CCO and answer again.
Ans: 0.86

* * *

Test: xn = mol fraction of the nth substance listed
Condition Notes: 298.15 K; 100.5 kPa; Liquid; Capillary tube (Ostwald / Ubbelohde) method; x1 = 0.75
Test Readout: viscosity (mPa·s)

Worked set:
Q: Name the reported viscosity value associated with the compound CCOC(=O)CC(C)=O [ethyl 3-oxobutanoate] + CCO
Ans: 1.316

Q: Now consider COC(=O)c1ccccc1 [methyl benzoate] + CCO and answer again.
Ans: 1.526

Q: Now consider CCC(=O)OCc1ccccc1 [benzyl propanoate] + CCO and answer again.
Ans: 1.797

[a] CCOC(=O)CC(C)C [ethyl 3-methylbutanoate] + CCO
[b] CC(=O)OCc1ccccc1 [benzyl ethanoate] + CCO
Q: Could you tell me which of a and b has the lower viscosity reading? The response must carry the label of the picked entry.
Ans: a
(a: 0.714 mPa·s, b: 1.691 mPa·s)
